molecular target: human USP13 (Homo sapiens, UniProt Q92995); construct: USP13 activity via ELISA in human SHSY5Y neuroblastoma cells; endogenous in cells; test: USP13 activity via ELISA in SHSY5Y cells; settings: SHSY5Y cell line, estimated with GraphPad Prism; read-out: IC50 to inhibit USP13 activity
Sequence (Q92995 whole entry): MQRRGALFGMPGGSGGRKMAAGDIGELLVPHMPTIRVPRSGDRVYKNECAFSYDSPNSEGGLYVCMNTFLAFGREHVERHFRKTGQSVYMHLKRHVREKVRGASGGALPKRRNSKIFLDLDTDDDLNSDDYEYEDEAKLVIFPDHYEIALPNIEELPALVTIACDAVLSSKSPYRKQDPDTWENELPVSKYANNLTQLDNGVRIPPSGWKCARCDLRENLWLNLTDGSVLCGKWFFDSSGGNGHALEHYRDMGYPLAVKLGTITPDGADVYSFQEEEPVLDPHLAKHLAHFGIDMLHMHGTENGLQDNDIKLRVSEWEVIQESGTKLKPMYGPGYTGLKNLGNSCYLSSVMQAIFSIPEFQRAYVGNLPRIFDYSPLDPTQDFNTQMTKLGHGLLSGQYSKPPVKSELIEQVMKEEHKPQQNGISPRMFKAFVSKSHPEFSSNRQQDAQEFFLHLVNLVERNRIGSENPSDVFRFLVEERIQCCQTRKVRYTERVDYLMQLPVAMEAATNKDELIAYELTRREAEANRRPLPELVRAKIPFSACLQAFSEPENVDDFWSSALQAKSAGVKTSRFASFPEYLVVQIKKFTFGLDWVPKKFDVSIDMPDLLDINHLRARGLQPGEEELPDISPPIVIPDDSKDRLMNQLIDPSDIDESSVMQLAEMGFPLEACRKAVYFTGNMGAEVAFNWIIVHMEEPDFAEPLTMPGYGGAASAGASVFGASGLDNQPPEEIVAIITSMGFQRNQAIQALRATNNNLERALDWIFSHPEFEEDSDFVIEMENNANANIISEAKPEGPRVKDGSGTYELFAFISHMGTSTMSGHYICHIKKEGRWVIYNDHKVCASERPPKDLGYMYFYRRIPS
// values below are reported IC50

>  <Compound>
COC(=O)[C@H](Cc1ccccc1)Nc1c([N+](=O)[O-])c(=O)oc2ccccc12 [CL3-512]

>  <Target>
human USP13 (Homo sapiens, UniProt Q92995)

>  <Unit>
nM

>  <IC50>
1080

$$$$
>  <Compound>
COC(=O)[C@H](Cc1ccc(O)cc1)Nc1c([N+](=O)[O-])c(=O)oc2ccccc12 [CL3-514]

>  <Target>
human USP13 (Homo sapiens, UniProt Q92995)

>  <Unit>
nM

>  <IC50>
68.9

$$$$
>  <Compound>
Fc1ccc2nccc(OCc3ccccc3)c2c1 [4-(Benzyloxy)-6-fluoroquinoline]

>  <Target>
human USP13 (Homo sapiens, UniProt Q92995)

>  <Unit>
nM

>  <IC50>
78

$$$$
>  <Compound>
Fc1ccc2nccc(NCc3ccccc3)c2c1 [CL3-499, N-Benzyl-6-fluoroquinolin-4-amine]

>  <Target>
human USP13 (Homo sapiens, UniProt Q92995)

>  <Unit>
nM

>  <IC50>
1190

$$$$
>  <Compound>
Fc1ccc2nccc(Nc3ccccc3)c2c1 [BK50118-B, 6-Fluoro-N-phenylquinolin-4-amine]

>  <Target>
human USP13 (Homo sapiens, UniProt Q92995)

>  <Unit>
nM

>  <IC50>
36.9

$$$$
>  <Compound>
c1ccc(Nc2ccnc3ccsc23)cc1 [BK50118-A, N-Phenylthieno[3,2-b]pyridin-7-amine]

>  <Target>
human USP13 (Homo sapiens, UniProt Q92995)

>  <Unit>
nM

>  <IC50>
26

$$$$
